# Lookup of reported pIC50 keyed by entry
target.system: P-gp/ABCB1 (Homo sapiens, UniProt P08183)
Sequence (P08183 whole entry): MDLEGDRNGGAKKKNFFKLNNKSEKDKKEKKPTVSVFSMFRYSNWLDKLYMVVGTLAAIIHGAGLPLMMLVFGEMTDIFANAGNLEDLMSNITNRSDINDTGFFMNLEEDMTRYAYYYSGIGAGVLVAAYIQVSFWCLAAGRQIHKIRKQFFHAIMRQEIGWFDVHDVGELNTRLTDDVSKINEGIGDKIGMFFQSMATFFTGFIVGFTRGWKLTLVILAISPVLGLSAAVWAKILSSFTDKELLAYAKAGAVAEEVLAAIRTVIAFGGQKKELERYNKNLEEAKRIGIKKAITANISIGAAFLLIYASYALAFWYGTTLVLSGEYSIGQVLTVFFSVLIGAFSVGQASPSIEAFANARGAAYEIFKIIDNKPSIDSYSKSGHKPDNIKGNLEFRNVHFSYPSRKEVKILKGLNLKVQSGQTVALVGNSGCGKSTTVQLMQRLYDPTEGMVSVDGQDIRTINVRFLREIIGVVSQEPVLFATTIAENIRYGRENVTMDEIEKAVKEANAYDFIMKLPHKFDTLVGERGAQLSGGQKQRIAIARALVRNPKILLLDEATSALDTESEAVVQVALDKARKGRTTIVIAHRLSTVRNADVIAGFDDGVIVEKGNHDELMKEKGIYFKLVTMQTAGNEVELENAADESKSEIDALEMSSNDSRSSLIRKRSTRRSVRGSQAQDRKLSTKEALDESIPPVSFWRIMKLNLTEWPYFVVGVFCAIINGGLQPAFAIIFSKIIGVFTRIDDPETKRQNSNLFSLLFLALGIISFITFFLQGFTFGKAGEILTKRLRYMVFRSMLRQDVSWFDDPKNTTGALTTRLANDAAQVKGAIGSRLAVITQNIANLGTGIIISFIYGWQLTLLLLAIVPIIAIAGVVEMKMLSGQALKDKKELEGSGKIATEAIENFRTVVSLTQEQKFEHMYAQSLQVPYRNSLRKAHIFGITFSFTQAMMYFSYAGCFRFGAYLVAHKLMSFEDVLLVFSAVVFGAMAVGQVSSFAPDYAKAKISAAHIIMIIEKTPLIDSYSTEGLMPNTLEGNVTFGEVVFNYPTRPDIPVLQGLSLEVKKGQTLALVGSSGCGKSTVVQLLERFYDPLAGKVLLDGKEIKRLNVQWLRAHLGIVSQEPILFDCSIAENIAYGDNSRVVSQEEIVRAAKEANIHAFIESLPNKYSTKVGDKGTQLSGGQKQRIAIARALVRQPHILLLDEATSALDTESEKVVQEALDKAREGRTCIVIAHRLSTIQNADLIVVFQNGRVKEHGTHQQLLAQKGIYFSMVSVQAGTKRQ
protocol.text: Flow cytometry: mitoxantrone efflux induced by ABCB1 in transfected NIH3T3 cells
pIC50: −log10 of the molar value.
metric: pIC50

1) CC(C)(C)OC(=O)NN(C(=O)N[C@@H](CCCCNC(=O)OCc1ccccc1)C(=O)OC(C)(C)C)c1ccc(C(=O)OCc2ccccc2)cc1 | 6.48
2) CC(C)(C)OC(=O)N[C@H](CNN(CCCCCCNC(=O)OCc1ccccc1)C(=O)OCc1ccccc1)CC(=O)OCc1ccccc1 | 6.15
3) CC(C)(C)OC(=O)N[C@H](CNN(CCCCCCNC(=O)OCc1ccccc1)C(=O)OC(C)(C)C)CC(=O)OCc1ccccc1 | 6.00
